The measured values listed here are drawn from PubChem BioAssay (NCI).

# System: OVCAR-8 ovarian
# Method summary: NCI tumour cell line growth inhibition, 48 h
Quantity kind: TGI (µM)

> print(dat)
                                    molecule  quantity.kind  censor.symbol  reported.measurement
 1        O=C(N/N=C\c1cccc2ccccc12)Nc1ccccc1            TGI              >                   100
 2  COc1ccc(C2=[S+]C(c3ccccc3)(c3ccccc3)c3ccccc32)cc1            TGI              >                   100
 3  C/C(=N\NC(=O)c1ccc(Cl)cc1)c1nc2ncccc2[nH]1            TGI              =                  58.6
 4  CSc1ncnc2c1ncn2CC(=O)C1CCC2C3CCC4=CC(=O)CCC4(C)C3CCC12C (configuration not stated)            TGI              >                  40.7
 5  C[C@@H](C[C@H]1OC(C)(C)O[C@@H]1C(C)(C)O)[C@H]1CC=C2[C@]3(C)[C@H](O)C[C@H]4C(C)(C)[C@H](O)CC[C@]4(C)[C@H]3CC[C@]21C            TGI              =                  27.1
 6  O=c1nc2ccc([N+](=O)[O-])cc2[n+]([O-])[nH]1            TGI              >                   100
 7                        OC1=CN=COc2ccccc21            TGI              >                   100
 8  Nc1nccc(NCC2(CO)CC(OCc3ccccc3)C2)n1 (configuration not stated)            TGI              >                   100
 9  CCSc1ccc([C@@H]2[C@@H](O)C(=O)N2c2cc(OC)c(OC)c(OC)c2)cc1            TGI              =                  16.8
10  Cc1cccc2[nH]c3c(c(O)cc4[nH]c5cccc(C)c5c(=O)c43)c(=O)c12            TGI              >                    10
11  Cn1cc(-c2cc(-c3cn(C)c4ccc(Cl)cc34)[nH]n2)c2cc(Cl)ccc21            TGI              =                  19.8
12      c1cc2c3c(c1)c1cc4c(cc1c[n+]3CC2)OCO4            TGI              =                  25.3

====

# Test system: KM12 colon
# Method summary: NCI tumour cell line growth inhibition, 48 h; in the data active = GI50 below about 0.43 µM; inactive = the rest
Possible outcomes: T = active, F = inactive

> print(dat)
                                   molecule  class.label
1       ClCc1cccc(Cn2cnc3c(Cl)nc(Cl)nc32)c1            F
2  Cc1cc(NCc2cc(Nc3ccnc4cc(Cl)ccc34)ccc2F)nc(N2CCOCC2)n1            F
3  C=C1C(=O)O[C@H]2[C@H]1CC/C(COC(=O)NCc1ccc(Cn3c(=O)sn(CCCCC)c3=O)cc1)=C\CC[C@@]1(C)O[C@@H]21            F
4  CCn1cc(/C=C2\Oc3cc(OCC#N)ccc3C2=O)c2cc(OC)ccc21            F
5  COc1cccc2c1C(=O)c1c(O)c3c(c(O)c1C2=O)C[C@@](O)(C(=O)COC(=O)c1ccccc1)C[C@@H]3OC1CC(N)C(O)C(C)O1 (stereo partly drawn)            T
6  CC(C)(C)NCC(O)COc1c(Br)c(Br)c(Br)c2c1OC(C)(C)C2 (stereo not drawn)            F
7  CCN1[C@@H](C(=O)NC23CCC(C(=O)O)(CC2)CC3)[C@H](c2cccc(Cl)c2F)[C@]2(C(=O)Nc3cc(Cl)ccc32)C12CCCCC2            F
8  COc1cc(F)ccc1-c1cc(Nc2cc(CS(C)(=N)=O)ccn2)ncc1F (stereo not drawn)            T

====

# System: A498 renal
# Method summary: NCI tumour cell line growth inhibition, 48 h
Parameter TGI: see the listing below.
Quantity kind: TGI

> print(dat)
                                   compound  reported.measurement
1  O=C1CCC2(c3ccccc3)Nc3ccccc3N12 (stereo unspecified)              > 100 µM
2  Cn1cc(-c2cc(-c3cn(C)c4ccc(Cl)cc34)[nH]n2)c2cc(Cl)ccc21               9.79 µM
3      C1CCCCC2(CCCCCCCCC3(CCC1)SCCS3)SCCS2              > 100 µM
4  CC(=O)O[C@H]1CC[C@@]2(C)C(=CC[C@@H]3[C@@H]2CC[C@]2(C)c4c(n[nH]c4C)C[C@@H]32)C1                 41 µM
5           Clc1ccc(/C=C/c2ccc3ccccc3n2)cc1              > 100 µM
6                            NC(=O)c1cccnc1              > 100 µM

====

# Test system: SF-539 CNS
# Method summary: NCI tumour cell line growth inhibition, 48 h
Quantity kind: TGI

> print(dat)
                                    compound  quantity.kind  reported.measurement
 1  O=C1CCC[C@H]2O[C@@H](COC(=O)c3ccccc3)C[C@H]2O1            TGI              > 100 µM
 2         Clc1ccccc1CN1COc2c(ccc3cccnc23)C1            TGI               11.7 µM
 3           CCOP(=O)(OCC)/C(C#N)=C/c1ccccn1            TGI              > 100 µM
 4  CSc1ncnc2c1ncn2CC(=O)C1CCC2C3CCC4=CC(=O)CCC4(C)C3CCC12C (stereo unspecified)            TGI               44.7 µM
 5  CC(C)(C)NCC(O)COc1c(Br)c(Br)c(Br)c2c1OC(C)(C)C2 (stereo unspecified)            TGI               3.18 µM
 6  C=C1C[C@@H](O)[C@@H](Br)C(C)(C)[C@@]12C=CC(=O)CC2            TGI              > 100 µM
 7            Nc1ccc(-c2nc3ccc(F)cc3s2)cc1Cl            TGI              > 100 µM
 8  C/C(=N\NC(=O)c1ccc(Cl)cc1)c1nc2ncccc2[nH]1            TGI               40.3 µM
 9  CC12CC(=O)Nc3ccccc3N1C(c1ccccc1)=NO2 (stereo unspecified)            TGI              > 100 µM
10  COc1ccc(-c2c(C#N)c(N)nc(N3CCOCC3)c2C#N)cc1            TGI              > 100 µM
11  COc1cc(/C=C2\C[C@H]3[C@@H]4CCC5=CC(=O)CC[C@]5(C)[C@H]4CC[C@]3(C)C2=O)cc(OC)c1OC            TGI              > 100 µM

====

# Tested on: SK-MEL-5 melanoma
# Method summary: NCI tumour cell line growth inhibition, 48 h
Quantity kind: TGI (µM)

> print(dat)
                                   compound  uom  censor.symbol  reported.measurement
1  CCCCc1ccc(-n2sc3ncc(-c4ccccc4)cc3c2=O)cc1   µM              >                   100
2  COc1cc(C2c3cc4c(cc3OC(NNS(=O)(=O)c3ccc(C)cc3)C2C)OCO4)cc(OC)c1OC (stereo not given)   µM              =                    25
3  COc1cc(C(=O)Oc2c(C(C)=O)sc3c2c(=O)n(-c2ccccc2)c(=S)n3-c2ccccc2)cc(OC)c1OC   µM              =                  32.1
4  O=C(Cn1cc(Br)c(=O)[nH]c1=O)c1ccc(-c2ccccc2)cc1   µM              >                  29.9
5       ClCc1cccc(Cn2cnc3c(Cl)nc(Cl)nc32)c1   µM              =                  3.05
